Every entry's value here was drawn from paper PMC4240912.

- Tested on: Human lung adenocarcinoma epithelial cell line (A549)
- test-method-notes: Alamar Blue cell viability, A549
- Assay type: cell-based
- condition-notes: A549, 24 h, with serum (2%)
pIC50: −log10 of the molar value.
observed-property: pIC50

- compound: "Cc1ccnc(-c2cc(C(=O)[O-])ccn2)c1.[Ru+2].c1ccc(-c2ccnc3c2ccc2c(-c4ccccc4)ccnc23)cc1.c1ccc(-c2ccnc3c2ccc2c(-c4ccccc4)ccnc23)cc1 [[Ru(dip)2(CH3bpy-COO)]^+]"
  observed-property: "pIC50"
  value-reported: 5.01
- compound: "Cc1ccnc(-c2cc(C)ccn2)c1.[Ru+2].c1ccc(-c2ccnc3c2ccc2c(-c4ccccc4)ccnc23)cc1.c1ccc(-c2ccnc3c2ccc2c(-c4ccccc4)ccnc23)cc1 [[Ru(dip)2(CH3bpy-CH3)]^2+]"
  observed-property: "pIC50"
  value-reported: 4.94
- compound: "[Ru+2].c1ccc(-c2ccccn2)nc1.c1ccc(-c2ccnc3c2ccc2c(-c4ccccc4)ccnc23)cc1.c1ccc(-c2ccnc3c2ccc2c(-c4ccccc4)ccnc23)cc1 [[Ru(dip)2(bpy)]^2+]"
  observed-property: "pIC50"
  value-reported: 4.56
- compound: "O=[N+]([O-])c1nccn1CCCc1ccnc(-c2ccccn2)c1.[Ru+2].c1ccc(-c2ccnc3c2ccc2c(-c4ccccc4)ccnc23)cc1.c1ccc(-c2ccnc3c2ccc2c(-c4ccccc4)ccnc23)cc1 [[Ru(dip)2(bpy-NitroIm)]^2+]"
  observed-property: "pIC50"
  value-reported: 4.76
- compound: "N.N.[Cl][Pt][Cl] [Cisplatin, reference compound]"
  observed-property: "pIC50"
  value-reported: 4.15

* * *

- Tested on: 4T1 breast cancer cell line
- test-method-notes: Alamar Blue cell viability, 4T1
- Type: cell-based
- condition-notes: 4T1, 24 h incubation, medium without serum
pIC50: −log10 of the molar value.
Recorded pIC50 by entry

- compound: "Cc1ccnc(-c2cc(C(=O)[O-])ccn2)c1.[Ru+2].c1ccc(-c2ccnc3c2ccc2c(-c4ccccc4)ccnc23)cc1.c1ccc(-c2ccnc3c2ccc2c(-c4ccccc4)ccnc23)cc1 [[Ru(dip)2(CH3bpy-COO)]^+]"
  system: "4T1 breast cancer cell line"
  pIC50: 5.06
- compound: "[Ru+2].c1ccc(-c2ccccn2)nc1.c1ccc(-c2ccnc3c2ccc2c(-c4ccccc4)ccnc23)cc1.c1ccc(-c2ccnc3c2ccc2c(-c4ccccc4)ccnc23)cc1 [[Ru(dip)2(bpy)]^2+]"
  system: "4T1 breast cancer cell line"
  pIC50: 5.17
- compound: "N.N.[Cl][Pt][Cl] [Cisplatin, reference compound]"
  system: "4T1 breast cancer cell line"
  pIC50: 4.14
- compound: "O=[N+]([O-])c1nccn1CCCc1ccnc(-c2ccccn2)c1.[Ru+2].c1ccc(-c2ccnc3c2ccc2c(-c4ccccc4)ccnc23)cc1.c1ccc(-c2ccnc3c2ccc2c(-c4ccccc4)ccnc23)cc1 [[Ru(dip)2(bpy-NitroIm)]^2+]"
  system: "4T1 breast cancer cell line"
  pIC50: 4.97
- compound: "Cc1ccnc(-c2cc(C)ccn2)c1.[Ru+2].c1ccc(-c2ccnc3c2ccc2c(-c4ccccc4)ccnc23)cc1.c1ccc(-c2ccnc3c2ccc2c(-c4ccccc4)ccnc23)cc1 [[Ru(dip)2(CH3bpy-CH3)]^2+]"
  system: "4T1 breast cancer cell line"
  pIC50: 5.31

* * *

Collected IC50 values appear next to each entry.
- Tested on: FVB mouse lung microvascular endothelial cells (MLuMEC FVB)
- test-method-notes: Alamar Blue cell viability, MLuMEC
- Type: cell-based
- condition-notes: 24 h, without serum

- molecule: "O=[N+]([O-])c1nccn1CCCc1ccnc(-c2ccccn2)c1.[Ru+2].c1ccc(-c2ccnc3c2ccc2c(-c4ccccc4)ccnc23)cc1.c1ccc(-c2ccnc3c2ccc2c(-c4ccccc4)ccnc23)cc1 [[Ru(dip)2(bpy-NitroIm)]^2+]"
  IC50, µM: 6.08
- molecule: "Cc1ccnc(-c2cc(C(=O)[O-])ccn2)c1.[Ru+2].c1ccc(-c2ccnc3c2ccc2c(-c4ccccc4)ccnc23)cc1.c1ccc(-c2ccnc3c2ccc2c(-c4ccccc4)ccnc23)cc1 [[Ru(dip)2(CH3bpy-COO)]^+]"
  IC50, µM: 7.74
- molecule: "Cc1ccnc(-c2cc(C)ccn2)c1.[Ru+2].c1ccc(-c2ccnc3c2ccc2c(-c4ccccc4)ccnc23)cc1.c1ccc(-c2ccnc3c2ccc2c(-c4ccccc4)ccnc23)cc1 [[Ru(dip)2(CH3bpy-CH3)]^2+]"
  IC50, µM: 3.36
- molecule: "N.N.[Cl][Pt][Cl] [Cisplatin, reference compound]"
  IC50, µM: 24.6
- molecule: "[Ru+2].c1ccc(-c2ccccn2)nc1.c1ccc(-c2ccnc3c2ccc2c(-c4ccccc4)ccnc23)cc1.c1ccc(-c2ccnc3c2ccc2c(-c4ccccc4)ccnc23)cc1 [[Ru(dip)2(bpy)]^2+]"
  IC50, µM: 4.7
